# assay_summary: Apparent clearance in CD-1 mouse at 3 mg/kg, po administered as single dose and measured over 24 hrs
# Format: ADME, organism-based
# condition_details: in vivo
quantity_name: CL/F

>  <molecule_smiles>
Cc1cc(F)ccc1-c1cc(NS(C)(=O)=O)c2ncc(-c3ccc4c(cnn4C)c3)n2c1

>  <quantity_name>
CL/F

>  <observed_measurement>
16 mL/min/kg

$$$$
